Values from the supplement of paper PMC6555819

# System: PPARg:RXRa IVT, anti-PPARg (NR concentration 270 nM, RXRa partner concentration 90 nM)
# protocol: PBM binding z-score (relative to random genomic background probes); higher = stronger binding; sequences stand for … in GC…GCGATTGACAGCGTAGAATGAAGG
property.name: PBM binding z-score

{"biopolymer.sequence": "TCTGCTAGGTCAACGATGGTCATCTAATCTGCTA", "target.or.system": "PPARg:RXRa IVT, anti-PPARg (NR concentration 270 nM, RXRa partner concentration 90 nM)", "PBM binding z-score": 4.02}
{"biopolymer.sequence": "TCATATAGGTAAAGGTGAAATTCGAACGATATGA", "target.or.system": "PPARg:RXRa IVT, anti-PPARg (NR concentration 270 nM, RXRa partner concentration 90 nM)", "PBM binding z-score": 3.94}

Proceed to the following item.
### Prompt Which value of PBM binding z-score has been reported for `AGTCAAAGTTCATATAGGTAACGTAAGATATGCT` in the records?
### Response 3.97

====

# Tested on: RARb:RXRa (NR concentration 270 nM, RXRa partner concentration 90 nM)
# protocol: PBM binding z-score (relative to random genomic background probes); higher = stronger binding; sequences stand for … in GC…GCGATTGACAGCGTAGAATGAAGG
Classes (PBM binding z-score): lo: < 2; med: ≥ 2 and < 4; hi: ≥ 4

Examples from the recorded data:
{"biopolymer.sequence": "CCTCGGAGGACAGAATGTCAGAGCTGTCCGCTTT", "target.or.system": "RARb:RXRa (NR concentration 270 nM, RXRa partner concentration 90 nM)", "classification": "lo"}
{"biopolymer.sequence": "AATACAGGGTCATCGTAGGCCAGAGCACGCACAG", "target.or.system": "RARb:RXRa (NR concentration 270 nM, RXRa partner concentration 90 nM)", "classification": "hi"}
{"biopolymer.sequence": "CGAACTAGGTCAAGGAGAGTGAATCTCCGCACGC", "target.or.system": "RARb:RXRa (NR concentration 270 nM, RXRa partner concentration 90 nM)", "classification": "med"}
{"biopolymer.sequence": "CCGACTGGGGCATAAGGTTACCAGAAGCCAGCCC", "target.or.system": "RARb:RXRa (NR concentration 270 nM, RXRa partner concentration 90 nM)", "classification": "lo"}
{"biopolymer.sequence": "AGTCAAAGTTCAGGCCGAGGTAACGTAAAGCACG", "target.or.system": "RARb:RXRa (NR concentration 270 nM, RXRa partner concentration 90 nM)", "classification": "hi"}
{"biopolymer.sequence": "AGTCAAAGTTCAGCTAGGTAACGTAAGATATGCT", "target.or.system": "RARb:RXRa (NR concentration 270 nM, RXRa partner concentration 90 nM)", "classification": "hi"}
{"biopolymer.sequence": "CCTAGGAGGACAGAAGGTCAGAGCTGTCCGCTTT", "target.or.system": "RARb:RXRa (NR concentration 270 nM, RXRa partner concentration 90 nM)", "classification": "med"}
{"biopolymer.sequence": "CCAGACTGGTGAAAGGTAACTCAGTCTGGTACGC", "target.or.system": "RARb:RXRa (NR concentration 270 nM, RXRa partner concentration 90 nM)", "classification": "lo"}

### Prompt Which band does `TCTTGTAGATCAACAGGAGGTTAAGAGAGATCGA` fall in?
### Response lo

### Prompt Same read-out for `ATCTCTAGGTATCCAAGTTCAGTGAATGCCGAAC` ?
### Response lo

### Prompt Same read-out for `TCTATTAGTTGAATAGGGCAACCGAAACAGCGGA` ?
### Response lo

### Prompt Same read-out for `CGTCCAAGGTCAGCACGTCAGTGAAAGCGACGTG` ?
### Response hi

====

# System: VDR homodimer (NR concentration 270 nM)
# protocol: PBM binding z-score (relative to random genomic background probes); higher = stronger binding; sequences stand for … in GC…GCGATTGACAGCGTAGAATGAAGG
Returns one of fulfilled or not fulfilled; fulfilled when PBM binding z-score is >= 0.4.

Examples from the recorded data:
{"biopolymer.sequence": "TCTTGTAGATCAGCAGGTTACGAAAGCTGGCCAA", "classification": "not fulfilled"}
{"biopolymer.sequence": "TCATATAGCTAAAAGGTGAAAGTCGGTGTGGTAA", "classification": "not fulfilled"}
{"biopolymer.sequence": "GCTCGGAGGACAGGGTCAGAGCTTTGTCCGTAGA", "classification": "not fulfilled"}
{"biopolymer.sequence": "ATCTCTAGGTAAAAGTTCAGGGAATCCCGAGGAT", "classification": "fulfilled"}
{"biopolymer.sequence": "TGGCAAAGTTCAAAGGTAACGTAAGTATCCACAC", "classification": "fulfilled"}
{"biopolymer.sequence": "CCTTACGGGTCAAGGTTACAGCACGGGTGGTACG", "classification": "fulfilled"}
{"biopolymer.sequence": "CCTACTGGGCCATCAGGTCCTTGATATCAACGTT", "classification": "not fulfilled"}
{"biopolymer.sequence": "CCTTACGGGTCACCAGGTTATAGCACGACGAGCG", "classification": "fulfilled"}
{"biopolymer.sequence": "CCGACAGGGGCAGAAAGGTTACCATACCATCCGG", "classification": "not fulfilled"}
{"biopolymer.sequence": "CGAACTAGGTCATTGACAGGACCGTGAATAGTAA", "classification": "fulfilled"}

### Prompt Please tell me: is the sequence `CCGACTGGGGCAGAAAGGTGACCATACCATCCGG` at or over 0.4 in terms of PBM binding z-score?
### Response not fulfilled

### Prompt Same read-out for `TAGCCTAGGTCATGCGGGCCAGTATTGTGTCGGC` ?
### Response not fulfilled

### Prompt Same read-out for `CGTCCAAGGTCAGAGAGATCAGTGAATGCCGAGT` ?
### Response fulfilled

### Prompt Same read-out for `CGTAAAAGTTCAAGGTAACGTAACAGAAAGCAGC` ?
### Response fulfilled

### Prompt Same read-out for `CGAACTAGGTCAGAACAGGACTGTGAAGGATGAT` ?
### Response not fulfilled

### Prompt Same read-out for `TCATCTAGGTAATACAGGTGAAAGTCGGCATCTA` ?
### Response not fulfilled

### Prompt Same read-out for `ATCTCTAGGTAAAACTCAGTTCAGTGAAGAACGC` ?
### Response fulfilled

### Prompt Same read-out for `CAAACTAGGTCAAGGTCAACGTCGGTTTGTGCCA` ?
### Response fulfilled

====

# Tested on: THRa homodimer (NR concentration 90 nM)
# protocol: PBM binding z-score (relative to random genomic background probes); higher = stronger binding; sequences stand for … in GC…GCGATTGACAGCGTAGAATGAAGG
Returns one of Satisfied or Not satisfied; Satisfied when PBM binding z-score is >= 0.3.

{"biopolymer.sequence": "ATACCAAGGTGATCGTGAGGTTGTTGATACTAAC", "classification": "Satisfied"}

### Prompt Please tell me: is the sequence `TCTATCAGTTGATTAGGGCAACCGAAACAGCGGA` at or over 0.3 in terms of PBM binding z-score?
### Response Not satisfied

### Prompt Same read-out for `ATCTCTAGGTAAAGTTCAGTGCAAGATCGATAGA` ?
### Response Not satisfied

### Prompt Same read-out for `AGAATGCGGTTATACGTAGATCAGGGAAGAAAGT` ?
### Response Not satisfied

### Prompt Same read-out for `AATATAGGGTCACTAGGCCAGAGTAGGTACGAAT` ?
### Response Satisfied

### Prompt Same read-out for `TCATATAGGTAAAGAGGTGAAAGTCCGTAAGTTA` ?
### Response Satisfied

### Prompt Same read-out for `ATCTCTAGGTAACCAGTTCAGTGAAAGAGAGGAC` ?
### Response Satisfied

### Prompt Same read-out for `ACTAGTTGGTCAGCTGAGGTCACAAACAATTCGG` ?
### Response Satisfied

====

# Test system: RARg homodimer (NR concentration 270 nM)
# protocol: PBM binding z-score (relative to random genomic background probes); higher = stronger binding; sequences stand for … in GC…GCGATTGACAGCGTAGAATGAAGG
Returns one of condition met or condition not met; condition met when PBM binding z-score is >= 0.8.

Examples from the recorded data:
{"biopolymer.sequence": "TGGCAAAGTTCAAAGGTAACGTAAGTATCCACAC", "target.or.system": "RARg homodimer (NR concentration 270 nM)", "classification": "condition met"}
{"biopolymer.sequence": "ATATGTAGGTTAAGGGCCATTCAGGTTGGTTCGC", "target.or.system": "RARg homodimer (NR concentration 270 nM)", "classification": "condition met"}
{"biopolymer.sequence": "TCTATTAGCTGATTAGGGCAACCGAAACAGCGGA", "target.or.system": "RARg homodimer (NR concentration 270 nM)", "classification": "condition not met"}
{"biopolymer.sequence": "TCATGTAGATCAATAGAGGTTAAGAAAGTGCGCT", "target.or.system": "RARg homodimer (NR concentration 270 nM)", "classification": "condition not met"}
{"biopolymer.sequence": "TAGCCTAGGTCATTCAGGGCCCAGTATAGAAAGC", "target.or.system": "RARg homodimer (NR concentration 270 nM)", "classification": "condition met"}

### Prompt Please tell me: is the sequence `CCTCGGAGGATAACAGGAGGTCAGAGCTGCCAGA` at or over 0.8 in terms of PBM binding z-score?
### Response condition met

### Prompt Same read-out for `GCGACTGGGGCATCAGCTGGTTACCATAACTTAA` ?
### Response condition not met

### Prompt Same read-out for `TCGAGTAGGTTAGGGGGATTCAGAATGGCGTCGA` ?
### Response condition not met

### Prompt Same read-out for `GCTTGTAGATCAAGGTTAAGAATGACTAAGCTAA` ?
### Response condition not met

### Prompt Same read-out for `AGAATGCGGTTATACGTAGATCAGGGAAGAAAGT` ?
### Response condition not met

### Prompt Same read-out for `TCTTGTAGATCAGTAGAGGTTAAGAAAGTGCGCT` ?
### Response condition not met

### Prompt Same read-out for `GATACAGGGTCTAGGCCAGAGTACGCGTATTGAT` ?
### Response condition not met

### Prompt Same read-out for `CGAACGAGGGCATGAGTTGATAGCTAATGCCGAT` ?
### Response condition met
